Target: hGARP-proTGFβ1 (human, UniProt Q14392 18-627; P01137 30-390, limits assumed)
Sequence (Q14392 18-627 limits assumed, chain 1 of 2): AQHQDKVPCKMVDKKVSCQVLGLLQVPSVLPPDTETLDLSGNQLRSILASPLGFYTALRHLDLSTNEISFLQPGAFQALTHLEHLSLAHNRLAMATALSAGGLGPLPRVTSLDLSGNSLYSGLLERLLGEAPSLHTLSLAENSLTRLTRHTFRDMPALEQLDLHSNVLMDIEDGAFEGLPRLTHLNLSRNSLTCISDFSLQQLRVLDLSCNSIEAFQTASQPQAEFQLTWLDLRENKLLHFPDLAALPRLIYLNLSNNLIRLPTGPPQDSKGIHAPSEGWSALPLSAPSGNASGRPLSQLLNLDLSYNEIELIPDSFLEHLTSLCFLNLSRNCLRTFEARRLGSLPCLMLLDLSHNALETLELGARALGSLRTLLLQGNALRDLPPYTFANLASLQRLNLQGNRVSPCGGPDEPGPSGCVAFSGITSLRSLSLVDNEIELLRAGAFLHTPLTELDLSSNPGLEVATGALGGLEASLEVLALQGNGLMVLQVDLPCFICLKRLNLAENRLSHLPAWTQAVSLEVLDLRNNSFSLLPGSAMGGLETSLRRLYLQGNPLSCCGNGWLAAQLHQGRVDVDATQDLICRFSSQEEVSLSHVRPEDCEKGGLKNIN
Sequence (P01137 30-390 limits assumed, chain 2 of 2): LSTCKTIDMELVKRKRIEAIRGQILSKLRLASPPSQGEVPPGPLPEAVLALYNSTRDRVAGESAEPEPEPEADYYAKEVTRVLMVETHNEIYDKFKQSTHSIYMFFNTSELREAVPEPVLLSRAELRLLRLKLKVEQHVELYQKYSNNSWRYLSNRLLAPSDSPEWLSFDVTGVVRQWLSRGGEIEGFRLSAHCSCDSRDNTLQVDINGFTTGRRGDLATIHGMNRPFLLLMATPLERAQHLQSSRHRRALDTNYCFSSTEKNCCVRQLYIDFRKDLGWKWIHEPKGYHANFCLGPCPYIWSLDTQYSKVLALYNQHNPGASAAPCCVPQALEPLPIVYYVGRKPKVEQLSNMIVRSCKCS
Assay: cell-based or functional assay

# binder, IC50, reporter cell assay, nM
records = [
    ("Ab26 (antibody, V domains shown) VH: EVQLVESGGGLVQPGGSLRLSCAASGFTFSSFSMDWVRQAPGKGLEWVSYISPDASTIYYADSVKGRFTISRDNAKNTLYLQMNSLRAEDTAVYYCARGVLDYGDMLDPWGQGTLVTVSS VL: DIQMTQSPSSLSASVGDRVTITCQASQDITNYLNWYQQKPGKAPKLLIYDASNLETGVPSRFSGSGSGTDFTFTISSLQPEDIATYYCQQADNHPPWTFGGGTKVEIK", 0.3),
    ("Ab29 (antibody, V domains shown) VH: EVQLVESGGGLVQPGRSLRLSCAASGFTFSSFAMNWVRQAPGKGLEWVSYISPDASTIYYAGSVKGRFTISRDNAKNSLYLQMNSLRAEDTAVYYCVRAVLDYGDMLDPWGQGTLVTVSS VL: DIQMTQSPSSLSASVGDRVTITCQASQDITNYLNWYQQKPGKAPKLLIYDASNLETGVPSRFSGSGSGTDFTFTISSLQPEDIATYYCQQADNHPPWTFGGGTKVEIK", 0.3),
    ("Ab25 (antibody, V domains shown) VH: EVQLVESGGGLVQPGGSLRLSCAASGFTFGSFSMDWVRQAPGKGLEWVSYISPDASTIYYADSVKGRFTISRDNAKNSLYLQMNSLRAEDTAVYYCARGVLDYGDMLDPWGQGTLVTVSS VL: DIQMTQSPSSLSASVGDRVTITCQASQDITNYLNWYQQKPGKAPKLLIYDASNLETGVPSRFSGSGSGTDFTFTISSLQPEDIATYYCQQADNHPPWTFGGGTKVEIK", 0.4),
    ("Ab4 (antibody, V domains shown) VH: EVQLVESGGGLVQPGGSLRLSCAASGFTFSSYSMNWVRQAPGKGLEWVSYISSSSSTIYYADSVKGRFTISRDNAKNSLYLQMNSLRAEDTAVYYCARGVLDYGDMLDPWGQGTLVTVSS VL: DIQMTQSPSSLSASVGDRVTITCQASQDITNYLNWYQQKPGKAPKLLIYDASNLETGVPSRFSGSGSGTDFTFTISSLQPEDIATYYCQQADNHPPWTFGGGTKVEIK", 0.8),
    ("Ab23 (antibody, V domains shown) VH: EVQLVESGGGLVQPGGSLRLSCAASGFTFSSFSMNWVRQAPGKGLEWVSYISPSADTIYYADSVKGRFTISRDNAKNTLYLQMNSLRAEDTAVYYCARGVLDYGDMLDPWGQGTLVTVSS VL: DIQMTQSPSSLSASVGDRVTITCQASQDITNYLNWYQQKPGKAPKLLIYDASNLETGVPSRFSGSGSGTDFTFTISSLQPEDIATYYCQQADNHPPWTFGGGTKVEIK", 0.3),
]
